Test: Exposure during ipGTT in ob/ob mice
Format: in vivo, mouse
Conditions: sc injection
Where a SMILES comes first, the peptide text is derived from it. [ ]: non-standard residue; d: D form. The star is where a group is joined. ξ: configuration not given here. Ala(6-(2-MePh)pyridin-3-yl) = Cc1ccccc1-c1ccc(C[C@H](N)C(=O)O)cn1; Bip(2'-Et-4'-OMe) = CCc1cc(OC)ccc1-c1ccc(C[C@H](N)C(=O)O)cc1; Lactoyl(3-(imidazol-4-yl)) = O=C([C@@H](O)Cc1c[nH]cn1)*; ξαMePhe(2-F) = CC(N)(Cc1ccccc1F)C(=O)O; ξαMeP = CC1(C(=O)O)CCCN1
PARAMETER: Exposure/dose during ipGTT in ob/ob mice (nM * h/nmol/kg)
Give just the numeric value; nM * h/nmol/kg need not be written.

Q: # Exposure/dose during ipGTT in ob/ob mice lookup, item CCc1cc(OC)ccc1-c1ccc(C[C@H](NC(=O)[C@H](CC(=O)O)NC(=O)[C@H](Cc2c[nH]cn2)NC(=O)[C@@H](NC(=O)C(C)(Cc2ccccc2F)NC(=O)[C@@H](NC(=O)CNC(=O)[C@H](CCC(=O)O)NC(=O)C2(C)CCCN2C(=O)[C@@H](O)Cc2c[nH]cn2)[C@@H](C)O)[C@@H](C)O)C(=O)N[C@@H](Cc2ccc(-c3ccccc3C)nc2)C(N)=O)cc1 (stereo partly shown) [SEQ ID NO: 151] ({Lactoyl(3-(imidazol-4-yl))}-[ξαMeP]EGT[ξαMePhe(2-F)]THD[Bip(2'-Et-4'-OMe)][Ala(6-(2-MePh)pyridin-3-yl)]-NH2)
Result: 16
